T/C for assorted molecules
# Tested on: BDF1 mice, B16 melanoma ip, median survival T/C
# protocol.details: NCI In Vivo Anticancer Drug Screen. Data for tumor model B16 Melanoma (intraperitoneal) in B6D2F1 (BDF1) mice
# condition.summary: endpoint: median survival time; dose: 400.0 mg/kg/injection; schedule: Q01DX009 (ip); vehicle: saline with Tween-80; higher = longer survival
# Method: The antitumor activity of compounds was measured in mice bearing transplantable tumors. Survival or tumor size were measured and the results are expressed as the measurement made in the treated group (T) divided by the measurement made in the vehicle treated control group (C). The tumor model used in this assay is B16 Melanoma (intraperitoneal) in B6D2F1 (BDF1) mice
Toxic doses and inconclusive results are not listed.
recorded.metric: T/C

CC1(C)SC2C(NC(=O)C(N)c3ccccc3)C(=O)N2C1C(=O)O (centres undefined); 90 % of control
CC(Oc1ccccc1)C(=O)c1ccccc1 (centres undefined); 93 % of control
NCC(=O)NCC(=O)NC(Cc1ccc(O)cc1)C(=O)O (centres undefined); 95 % of control
CCCCCCC(=O)CC(SCC)c1ccccc1Cl (centres undefined); 91 % of control
CCc1cc(C)cc(OC(=O)Nc2ccc(Cl)cc2)c1; 92 % of control
O=C1CC2C=CCC12 (centres undefined); 91 % of control
C/C(C/C(C)=N/O)=N/O.C/C(C/C(C)=N/O)=N\O.[Cl][Rh][Cl]; 92 % of control
CCOc1ccc(OCC)c(NC(=O)c2ccccc2)c1; 110 % of control
ClCCN=Cc1ccc(Cl)cc1; 93 % of control
Oc1ccc2ccccc2c1N=Nc1ccc(F)cc1; 108 % of control
COc1ccc(NC(=O)Nc2ccccc2OC)cc1; 101 % of control
CC(=O)CC(=O)OCc1ccccc1; 100 % of control
CC(C)CC(Br)C(=O)NC(CC(C)C)C(=O)O (centres undefined); 108 % of control
CCN(C(=O)Nc1ccc(Cl)cc1)c1ccccc1C; 97 % of control
CC(C)(C)OC(=O)NCCCC(NC(=O)OCc1ccccc1)C(=O)O (centres undefined); 86 % of control
OC(C(c1ccccc1)c1ccccn1)(C(F)(F)F)C(F)(F)F (centres undefined); 105 % of control
O=C(O)C1OC1c1ccccc1 (centres undefined); 100 % of control
CC1CCCCC1NC(=O)NCCOC(=O)OCCNC(=O)NC1CCCCC1C (centres undefined); 97 % of control
CC(=O)OCC(Br)C(Br)COC(C)=O (centres undefined); 97 % of control
CC1(C)C=C(C(Br)c2ccc(Cl)cc2)C(=O)c2ccccc21 (centres undefined); 97 % of control
CO[C@H]1C[C@@H]2CC[C@@H](C)[C@@](O)(O2)C(=O)C(=O)N2CCCC[C@H]2C(=O)O[C@H]([C@H](C)C[C@@H]2CC[C@@H](O)[C@H](OC)C2)CC(=O)[C@H](C)C=C(C)[C@@H](O)[C@@H](OC)C(=O)[C@H](C)C[C@H](C)/C=C/C=C/C=C1C; 109 % of control
CC(C)COC(=O)c1ccc(NC(=O)Nc2ccccc2)cc1; 97 % of control
O=[N+]([O-])c1ccc2ccccc2c1I; 99 % of control
NC(N)=NC(N)=Nc1ccc(S(=O)(=O)O)cc1; 98 % of control

Taken from PubChem BioAssay AID192.
